Assay: folding stability dG unfold from trypsin proteolysis; higher = more stable
Please go through the items and note down their folding stability dG unfold.
Give bare numbers, in kcal/mol.

Sequence Chain: SAGGSAGGSPETVTLTLTVTVKTVTLDPETGELTTTTHTVTLTLTLSKEDLEALLKSPELKKLSAGGSAGGS [r12_1015_TrROS_Hall]
folding stability dG unfold / kcal/mol: 1.84

Sequence Chain: SAGGSAGGKIAVIPYVPEEDIPPELRELFGKEGSLSPEEFQELFAEAVARELGEEGAIDAVIVESAGGSAGG [r6_654_TrMRF]
folding stability dG unfold / kcal/mol: 0.618

Sequence Chain: SAGGSAGGSAGGMLFHFEIKDPNSDKEYEVLVEKPPSGKVLVTILKDNKEEVKVLPLELFSAGGSAGGSAGG [r11_952_JUSTAS]
folding stability dG unfold / kcal/mol: 0.109

Sequence Chain: SAGMEATIEIVGHPGDKEAIAVLRPEDKTVVIYKNKDGSYTVEVFEPNPARLIERKELPLEEAIKEALSAGG [r19_188_TrMRF]
folding stability dG unfold / kcal/mol: -0.343

Sequence Chain: SMKIPGMSAKEKLRKAIEALLEEAEKKGIKEITIKIYNKKTKKPIKEIKFKSKEELLKKIEEGDEVEIEFSA [r9_718_TrROS_Hall]
folding stability dG unfold / kcal/mol: 2.1

Dear reader, for each entry below, please note its folding stability dG unfold.
1. SAGGSAGMPKVRIPIEEDPENGNILIRVKMPNSGREHEYHIPGNLKEAKENFEDHFGFDITDVEIWSAGGSA [r15_101_TrROS]
2. SAGGSAGGSAGGFKLPPGKPIEFPIKHGGEPYPVEIWRDPNKLMIHFPGNNQWIPADDIKSAGGSAGGSAGG [r7_37_TrROS]
3. SAGKPEWKLVETIEVTIEVPPGVTVEEIEKKLLEALKEKGIKEVKIEVTYDKENKTITVRVEVLVKKEKSAG [r5_924_TrROS_Hall]
4. SAGGSAETLVITLPPELEGLSEEELLALLKALLPPGAEITEIRVERLPDGSLRVTVTVRVPPPEEPSAGGSA [r15_451_TrROS_Hall]
5. SAGGKRRTINFDIEGMTPEKFVHMARMAIRNLPDPEQVTITINMRNPMWRRWFIELAKELPGIEIEFMSAGG [r13_718_TrROS]
6. SAGMKITLPKGVKSIKVEEVNGKKVIYIEVDGKIFVYDLKTGKLYIYDKKTGEKKEITIKKGDTITLKSAGG [r19_138_TrROS_Hall]

Return:
1: 0.364; 2: -0.828; 3: 1.27; 4: 3.33; 5: 2.52; 6: 1.03

Reference for the values: the supplement of paper PMC12764529
